src = ChEMBL document CHEMBL5523702

Let's look at some compounds and their measured Papp A→B.
Assay: Apparent permeability of compound in human Caco-2 cells across apical to basolateral side
property: Papp A→B (nm/s)

- compound: "CC(C)CCN[C@@H]1CCc2cc(O)c(N3CC(=O)NS3(=O)=O)c(F)c2C1 [OSUNPROTAFIB]"
  unitAbbrev: "nm/s"
  readoutQualifier: "="
  resultNumber: 14.3
- compound: "O=C1CN(c2c(O)cc3c(c2F)CCN(CC2CC2)CC3)S(=O)(=O)N1"
  unitAbbrev: "nm/s"
  readoutQualifier: "="
  resultNumber: 2.8
- compound: "CN1CCc2cc(O)c(N3CC(=O)NS3(=O)=O)c(F)c2CC1"
  unitAbbrev: "nm/s"
  readoutQualifier: "<"
  resultNumber: 4.8
